Numbers sourced from patent US5532233A.

- targetSystem: benzodiazepine receptor
- protocolDetails: benzodiazepine receptor bonding test using [^3 H] flunitrazepam as radioligand (FNB)
- Format: binding
- protocolConditions: [^3 H] flunitrazepam; racemate tested unless otherwise noted; read-out: IC50 value FNB (flunitrazepam bonding test)
pIC50: −log10 of the molar value.
pIC50 below 6 gives no (0); pIC50 at or above it gives yes (1).

> print(dat)
                                   compound  qualitativelabel
1  CC(=S)N1CCc2c(sc3c2C(c2ccccc2Cl)=NCc2nnc(C)n2-3)C1            no (0)
2  Cc1nnc2n1-c1sc3c(c1C(c1ccccc1Cl)=NC2)CC(C(=O)N1CCN(C)CC1)CC3 (stereo not drawn)            no (0)
3  CCN(CC)C(=O)C1CCc2sc3c(c2C1)C(c1ccccc1Cl)=NCc1ncc(C)n1-3 (stereo not drawn)            no (0)
4  Cc1cnc2n1-c1sc3c(c1C(c1ccccc1Cl)=NC2)CC(CN1CCOCC1)C3 (stereo not drawn)            no (0)
5  Cc1nnc2n1-c1sc3c(c1C(c1ccccc1Cl)=NC2)CC(C1=NCCO1)CC3 (stereo not drawn)            no (0)
6  Cc1nnc2n1-c1ccc(Cl)cc1C(c1ccccc1)=NC2 [Alprazolam, reference compound]           yes (1)

----------
- Test system: PAF-induced aggregation of human thrombocytes
- protocolDetails: PAF-induced aggregation of human thrombocytes in vitro (inhibition of blood platelet aggregation)
- Assay type: cell-based
- protocolConditions: Homo sapiens, read-out: IC50 value PAF
pIC50: −log10 of the molar value.
pIC50 below 6 gives label 0; pIC50 at or above it gives label 1.

> print(dat)
                                    molecule  qualitativelabel
 1  CCN(CC)C(=O)C1CCc2sc3c(c2C1)C(c1ccccc1Cl)=NCc1ncc(C)n1-3 (centres unmarked)           label 1
 2  CCN(CC)C(=O)C1CCc2sc3c(c2C1)C(c1ccccc1Cl)=NCc1nnc(C)n1-3 (centres unmarked)           label 1
 3  Cc1nnc2n1-c1sc3c(c1C(c1ccccc1Cl)=NC2)CC(CO)CC3 (centres unmarked)           label 0
 4  Cc1nnc2n1-c1sc3c(c1C(c1ccccc1Cl)=NC2)CC(C(=O)N1CCOCC1)C3 (centres unmarked)           label 1
 5  Cc1cnc2n1-c1sc3c(c1C(c1ccccc1Cl)=NC2)CC(CN1CCOCC1)C3 (centres unmarked)           label 1
 6  Cc1nnc2n1-c1sc3c(c1C(c1ccccc1Cl)=NC2)CC(C1=NCCO1)CC3 (centres unmarked)           label 0
 7  Cc1nnc2n1-c1ccc(Cl)cc1C(c1ccccc1Cl)=NC2 [Triazolam, reference compound]           label 0
 8  Cc1nnc2n1-c1sc3c(c1C(c1ccccc1Cl)=NC2)CC(CN1CCOCC1)C3 (centres unmarked)           label 1
 9  CC(=O)OCC1CCc2sc3c(c2C1)C(c1ccccc1Cl)=NCc1nnc(C)n1-3 (centres unmarked)           label 1
10  Cc1nnc2n1-c1sc3c(c1C(c1ccccc1Cl)=NC2)CC(C(=O)N1CCN(C)CC1)CC3 (centres unmarked)           label 0
11  Cc1nnc2n1-c1sc3c(c1C(c1ccccc1Cl)=NC2)CC(CN1CCOCC1)CC3 (centres unmarked)           label 1
